tested on: MYB mRNA; test: RT-qPCR splicing assay, MYB mRNA canonical (CJ) and alternative (AJ) junction; assay type: cell-based, human; settings: Homo sapiens, MYB canonical junction mRNA, RT-qPCR; read-out: MYB CJ (decrease in CJ mRNA levels, IC50)
pIC50: −log10 of the molar value.
METRIC: pIC50

Example molecules with recorded pIC50:
{"MOLECULE": "COc1cc2nn(C)cc2cc1-c1ccc2c(F)c(C3CCNCC3)ccc2n1 [Compound 143]", "ENDPOINT RESULT": "< 5.00"}
{"MOLECULE": "Cn1cnc2cc(-c3ccc4nc(N5CCC(NC(C)(C)C)C5)ccc4n3)c(O)cc2c1=O (stereo not shown) [Compound 167]", "ENDPOINT RESULT": "< 5.00"}

Input: Param item = Cn1cc2cc(-c3ccc4nc(N5CCC(NCC6CC6)C5)ccc4n3)c(O)c(F)c2n1 (stereo not shown) [Compound 387] ; retrieve measured pIC50.
Output: > 7.00

Input: Param item = CC(C)N[C@H]1CCN(c2ccc3nc(-c4cc5cn(C)nc5cc4O)ccc3n2)C1 [Compound 171] ; retrieve measured pIC50.
Output: > 7.00

* * *

Reported values of IC50 for individual entries
test system: Target C; experiment: RT-qPCR canonical junction panel assay, Target C mRNA; type: cell-based; details: Table 4, read-out: Target C IC50 (decrease in CJ mRNA levels)

{"COMPOUND": "Cc1nc2c(C)c(O)c(-c3ccc4nc(N5CC[C@@H](NC(C)(C)C)C5)ncc4n3)cc2o1 [Compound 436]", "ENDPOINT RESULT": "< 100 nM"}
{"COMPOUND": "Cc1nc2cc(O)c(-c3ccc4cc(N5CC[C@@H](NC(C)(C)C)C5)ncc4n3)cc2o1 [Compound 417]", "ENDPOINT RESULT": "1000 to 10000 nM"}
{"COMPOUND": "Cc1nc2c(F)c(O)c(-c3ccc4nc(N5CC[C@H](NC(C)C)C5)ccc4n3)cc2o1 (single isomer, unassigned) [Compound 330]", "ENDPOINT RESULT": "< 100 nM"}
{"COMPOUND": "Cc1cn2nc(-c3ccc4nc(N5CCC(NC6CC6)C5)ccc4n3)c(O)c2c(C)n1 (centres unmarked) [Compound 252]", "ENDPOINT RESULT": "100 to 1000 nM"}

Input: Param item = Cc1nc2cc(O)c(-c3ccc4nc(N5CC[C@H](NC6CC6)C5)ncc4n3)cc2o1 [Compound 435] ; retrieve measured IC50.
Output: 100 to 1000 nM

* * *

tested on: HTT mRNA; assay: RT-qPCR splicing assay, HTT mRNA canonical (CJ) and alternative (AJ) junction; assay type: cell-based, human; settings: Homo sapiens, HTT canonical junction mRNA, RT-qPCR; read-out: HTT CJ (decrease in CJ mRNA levels, IC50)
pIC50: −log10 of the molar value.
Reported values of pIC50 for individual entries

Example compounds with recorded pIC50:
{"COMPOUND": "Cn1cc2cc(-c3ccc4nc(N5CC[C@H](NC6CCC6)C5)ccc4n3)c(O)cc2n1", "METRIC": "pIC50", "ENDPOINT RESULT": "> 7.00"}
{"COMPOUND": "Cn1cc2cc(-c3ccc4nc(N5CC[C@H](NC6(C)CC6)C5)ccc4n3)c(O)c(F)c2n1", "METRIC": "pIC50", "ENDPOINT RESULT": "> 7.00"}
{"COMPOUND": "CC(C)N[C@@H]1CCN(c2ccc3nc(-c4cc5cn(C)nc5cc4O)ccc3n2)C1", "METRIC": "pIC50", "ENDPOINT RESULT": "> 7.00"}
{"COMPOUND": "Cc1nc2c(C)c(O)c(-c3ccc4nc(N5CC[C@H](NC6CC6)C5)ccc4n3)cc2o1", "METRIC": "pIC50", "ENDPOINT RESULT": "> 7.00"}
{"COMPOUND": "Cc1cn2cc(-c3ccc4cc(N5C[C@@H](C)N[C@@H](C)C5)cc(F)c4n3)cc(F)c2n1", "METRIC": "pIC50", "ENDPOINT RESULT": "6.00 to 7.00"}
{"COMPOUND": "Cn1cc2cc(-c3ccc4nc(N5CCN6CCCC6C5)ccc4n3)c(O)cc2n1 (stereo not shown)", "METRIC": "pIC50", "ENDPOINT RESULT": "5.00 to 6.00"}

Okay, next one:
Input: Param item = Cn1cc2nc(-c3ccc4nc(N5CCC(NC(C)(C)C)C5)ccc4n3)c(O)cc2n1 (stereo not shown) ; retrieve measured pIC50.
Output: > 7.00

* * *

test system: HTT; experiment: HiBiT protein abundance assay, HTT (K562 HiBiT knock-in); format: cell-based, human; conditions: HiBiT knock-in K562 cells, 24 hours, top dose 10 μM
Reported values of IC50 for individual entries

Example molecules with recorded IC50:
{"MOLECULE": "Cn1cc2cc(-c3ccc4nc(N5CCNC6(CC6)C5)ccc4n3)c(O)cc2n1", "IC50": "1 to 10 µM"}
{"MOLECULE": "Cn1cc2cc(-c3ncc4nc(N5CC[C@@H](N)C5)ccc4n3)c(O)c(F)c2n1 (single isomer, unassigned)", "IC50": "< 0.1 µM"}
{"MOLECULE": "CNC(=O)c1nc(-c2cc3cn(C)nc3c(F)c2O)nc2ccc(N3CCNC4(CC4)C3)cc12", "IC50": "0.1 to 1 µM"}

Okay, next one:
Input: Param item = Cc1nc2c(C)c(O)c(-c3ccc4nc(N5CCC(NC6(C)CC6)C5)ccc4n3)cc2o1 (stereo not shown) ; retrieve measured IC50.
Output: < 0.1 µM

* * *

System: MYB mRNA
Assay: RT-qPCR splicing assay, MYB mRNA canonical (CJ) and alternative (AJ) junction
Assay type: cell-based, human
Details: Homo sapiens, RT-qPCR, MYB canonical junction mRNA decrease; read-out: MYB CJ (decrease in canonical junction mRNA, IC50)
Method: Compounds described herein were used to modulate RNA transcript abundance in cells. The expression of a target mRNA was measured by detecting the formation of an exon-exon junction in the canonical transcript (CJ). A compound mediated exon-inclusion event was detected by observing an increase in formation of a new junction with an alternative exon (AJ). Real-time qPCR assays were used to detect these splicing switches and interrogate the potency of various compounds towards different target genes. […]
Where a name gives a salt, the structure may show the parent alone.
Reported values of IC50 for individual entries

Example compounds with recorded IC50:
{"COMPOUND": "COc1nc(-c2ncc3cc(N4C[C@@H](C)N[C@@H](C)C4)ccc3n2)cn2cc(C)nc12 [Compound 838]", "METRIC": "IC50", "ENDPOINT RESULT": "100 to 1000 nM"}
{"COMPOUND": "Cc1cn2cc(-c3ncc4cc(N5C[C@@H](C)N[C@@H](C)C5)ccc4n3)cc(C#N)c2n1 [Compound 831]", "METRIC": "IC50", "ENDPOINT RESULT": "< 100 nM"}
{"COMPOUND": "Cc1c(O)c(-c2nc(C3CCC3)c3cc(N4C[C@H](C)N[C@@H](C)C4)ccc3n2)cc2cn(C)nc12 (single isomer, unassigned) [Compound 794]", "METRIC": "IC50", "ENDPOINT RESULT": "100 to 1000 nM"}
{"COMPOUND": "Cc1nc2c(F)cc(-c3ncc4cc(N5C[C@H](C)N[C@@H](C)C5)ccc4n3)cn2n1 [Compound 819, hydrochloride]", "METRIC": "IC50", "ENDPOINT RESULT": "100 to 1000 nM"}
{"COMPOUND": "Cc1nc(-c2cc3cn(C)nc3c(C)c2O)nc2ccc(N3C[C@@H](C)N[C@@H](C)C3)cc12 [Compound 783]", "METRIC": "IC50", "ENDPOINT RESULT": "100 to 1000 nM"}
{"COMPOUND": "C[C@@H]1CN(c2ccc3nc(-c4cc(F)c5nc(CF)cn5c4)ncc3c2)C[C@H](C)N1 [Compound 835]", "METRIC": "IC50", "ENDPOINT RESULT": "100 to 1000 nM"}
{"COMPOUND": "Cc1cn2nc(-c3ccc4cc(N5CCNC6(CC6)C5)cc(F)c4n3)cc(C)c2n1 [Compound 804]", "METRIC": "IC50", "ENDPOINT RESULT": "100 to 1000 nM"}
{"COMPOUND": "Cc1c(O)c(-c2nc(C(N)=O)c3cc(N4C[C@H](C)N[C@@H](C)C4)ccc3n2)cc2cn(C)nc12 [Compound 796]", "METRIC": "IC50", "ENDPOINT RESULT": "< 100 nM"}
{"COMPOUND": "Cc1nc(-c2cc3cn(C)nc3c(C)c2O)nc2ccc(N3CCNC4(CC4)C3)cc12 [Compound 793]", "METRIC": "IC50", "ENDPOINT RESULT": "100 to 1000 nM"}
{"COMPOUND": "Cc1nc(-c2cc3cn(C)nc3cc2O)nc2ccc(N3C[C@H](C)N[C@@H](C)C3)cc12 (single isomer, unassigned) [Compound 806]", "METRIC": "IC50", "ENDPOINT RESULT": "< 100 nM"}

Input: Param item = C[C@@H]1CN(c2ccc3nc(-c4cc(F)c5nn(C)c(F)c5c4)ncc3c2)C[C@H](C)N1 [Compound 925] ; retrieve measured IC50.
Output: 1000 to 10000 nM

Input: Param item = Cc1nc(-c2cc3cn(C)nc3c(C)c2O)nc2ccc(N3C[C@H](C)N[C@@H](C)C3)cc12 (single isomer, unassigned) [Compound 807] ; retrieve measured IC50.
Output: < 100 nM

Input: Param item = C[C@@H]1CN(c2cc(F)c3nc(-c4cc5cn(C)nc5cc4O)ccc3c2)C[C@H](C)N1 [Compound 768, hydrochloride] ; retrieve measured IC50.
Output: 100 to 1000 nM

Input: Param item = Cc1nc2c(F)cc(-c3ncc4cc(N5C[C@@H](C)N[C@@H](C)C5)ccc4n3)cn2n1 [Compound 825] ; retrieve measured IC50.
Output: 100 to 1000 nM
